pIC50 tested on Peroxisome proliferator-activated receptor delta (Homo sapiens, UniProt Q03181): recorded values
Sequence (Q03181 whole entry): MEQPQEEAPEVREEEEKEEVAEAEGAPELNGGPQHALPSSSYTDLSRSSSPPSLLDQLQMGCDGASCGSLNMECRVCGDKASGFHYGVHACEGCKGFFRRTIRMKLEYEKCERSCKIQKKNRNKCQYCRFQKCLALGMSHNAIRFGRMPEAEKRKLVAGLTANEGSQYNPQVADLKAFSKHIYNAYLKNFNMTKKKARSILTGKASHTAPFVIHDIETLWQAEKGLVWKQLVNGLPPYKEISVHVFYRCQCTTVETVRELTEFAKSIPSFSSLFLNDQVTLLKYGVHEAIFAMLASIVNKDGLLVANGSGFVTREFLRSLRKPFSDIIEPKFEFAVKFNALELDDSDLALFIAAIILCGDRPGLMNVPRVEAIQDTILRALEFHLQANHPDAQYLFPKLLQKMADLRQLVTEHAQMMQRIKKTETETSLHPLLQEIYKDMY
pIC50: −log10 of the molar value.
metric: pIC50

>  <smiles_data>
O=C(O)Cc1coc2cc(OCc3cc(-c4ccc(C(F)(F)F)cc4)on3)ccc12

>  <metric>
pIC50

>  <quantitative_result>
7.60

$$$$
>  <smiles_data>
O=C(O)Cn1ccc2cc(OCc3ccccc3COc3ccc(C(F)(F)F)cc3)ccc21

>  <metric>
pIC50

>  <quantitative_result>
6.13

$$$$
>  <smiles_data>
O=C(O)Cc1csc2cc(OCc3ccccc3COc3ccc(C(F)(F)F)cc3)ccc12

>  <metric>
pIC50

>  <quantitative_result>
6.61

$$$$
>  <smiles_data>
Cc1nc(C(F)(F)F)sc1COc1ccc2c(ccn2CC(=O)O)c1

>  <metric>
pIC50

>  <quantitative_result>
8.17

$$$$
>  <smiles_data>
Cc1nc(C(F)(F)F)sc1CSc1ccc2c(ccn2CC(=O)O)c1

>  <metric>
pIC50

>  <quantitative_result>
8.55

$$$$
>  <smiles_data>
Cc1cc2c(CC(=O)O)csc2cc1OCc1cc(-c2ccc(Cl)cc2)on1

>  <metric>
pIC50

>  <quantitative_result>
7.43

$$$$
>  <smiles_data>
Cc1cc2c(CC(=O)O)csc2cc1OCc1sc(-c2ccc(C(F)(F)F)cc2)nc1C

>  <metric>
pIC50

>  <quantitative_result>
6.63

$$$$
>  <smiles_data>
O=C(O)Cc1csc2cc(OCc3cc(-c4ccc(Cl)cc4)on3)cc(Cl)c12

>  <metric>
pIC50

>  <quantitative_result>
6.43

$$$$
>  <smiles_data>
Cc1cc(OCc2cc(-c3ccc(Cl)cc3)on2)cc2scc(CC(=O)O)c12

>  <metric>
pIC50

>  <quantitative_result>
7.64

$$$$
>  <smiles_data>
O=C(O)Cc1csc2cc(OCc3cc(-c4ccc(Cl)cc4)on3)ccc12

>  <metric>
pIC50

>  <quantitative_result>
8.11

$$$$

A: O=C(O)Cc1csc2cc(OCc3cc(-c4ccc(C(F)(F)F)cc4)on3)cc(Cl)c12
B: O=C(O)Cc1csc2cc(OCc3cc(-c4ccc(C(F)(F)F)cc4)on3)ccc12
Between the entries labelled A and B , which has a larger pIC50 value on record? Reply with the label of the item you choose.
B
(B: 7.96, A: 7.01)
